Target: T1, human complement factor H (human, UniProt P08603 19-1231)
T1 construct: also called human fH; fH
T1 sequence (P08603 19-1231 limits assumed): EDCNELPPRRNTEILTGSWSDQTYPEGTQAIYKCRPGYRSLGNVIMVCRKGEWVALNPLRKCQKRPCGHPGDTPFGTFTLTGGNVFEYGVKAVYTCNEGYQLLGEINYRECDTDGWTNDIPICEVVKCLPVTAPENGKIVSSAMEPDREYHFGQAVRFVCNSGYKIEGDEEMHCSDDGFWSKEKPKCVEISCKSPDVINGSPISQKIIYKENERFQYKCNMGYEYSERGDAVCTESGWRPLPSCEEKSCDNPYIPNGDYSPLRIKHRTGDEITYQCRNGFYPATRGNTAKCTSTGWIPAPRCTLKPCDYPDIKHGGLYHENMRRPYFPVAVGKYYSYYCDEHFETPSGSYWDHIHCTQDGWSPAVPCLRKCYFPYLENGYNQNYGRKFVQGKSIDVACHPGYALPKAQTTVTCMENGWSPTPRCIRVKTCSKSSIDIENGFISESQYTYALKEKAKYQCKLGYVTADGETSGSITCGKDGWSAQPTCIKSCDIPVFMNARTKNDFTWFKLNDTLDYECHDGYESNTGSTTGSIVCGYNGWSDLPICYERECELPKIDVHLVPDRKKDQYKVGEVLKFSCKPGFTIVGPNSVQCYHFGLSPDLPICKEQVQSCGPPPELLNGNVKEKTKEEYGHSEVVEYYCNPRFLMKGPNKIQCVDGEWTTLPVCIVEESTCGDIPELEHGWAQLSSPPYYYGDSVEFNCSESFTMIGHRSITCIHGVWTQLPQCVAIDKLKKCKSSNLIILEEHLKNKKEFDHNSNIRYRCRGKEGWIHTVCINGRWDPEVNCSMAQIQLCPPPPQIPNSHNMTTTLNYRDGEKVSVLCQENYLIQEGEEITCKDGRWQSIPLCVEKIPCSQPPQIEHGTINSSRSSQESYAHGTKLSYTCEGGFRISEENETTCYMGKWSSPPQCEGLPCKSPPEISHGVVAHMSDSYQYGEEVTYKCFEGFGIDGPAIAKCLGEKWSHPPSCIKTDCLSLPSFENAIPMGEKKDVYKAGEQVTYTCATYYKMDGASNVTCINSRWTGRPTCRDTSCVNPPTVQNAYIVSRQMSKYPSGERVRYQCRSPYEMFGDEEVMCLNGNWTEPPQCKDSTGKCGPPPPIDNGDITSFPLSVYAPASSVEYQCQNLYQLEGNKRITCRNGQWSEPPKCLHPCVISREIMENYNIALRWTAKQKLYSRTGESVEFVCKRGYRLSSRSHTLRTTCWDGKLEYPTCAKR
Assay: ELISA, vs respective wildtype fHbp
Property Label: Fold-Decrease in fH binding

[[record]]
binder = "fHbp ID 77 R41S/K119A double mutant (other) CSSGGGGVAADIGARLADALTAPLDHKDKSLQSLTLDQSVSKNEKLKLAAQGAEKTYGNGDSLNTGKLKNDKVSRFDFIRQIEVDGQLITLESGEFQIYKQDHSAVVALQIEKINNPDAIDSLINQRSFLVSGLGGEHTAFNQLPDGKAEYHGKAFSSDDAGGKLTYTIDFAAKQGHGKIEHLKTPEQNVELAAAELKADEKSHAVILGDTRYGSEEKGTYHLALFGDRAQEIAGSATVKIGEKVHEIGIAGKQ"
result = "> 5 fold"

[[record]]
binder = "fHbp ID 77, wild-type (strain 8047, variant group 2, modular group VI) (other, Recombinant; also called ID 77 (VI); wildtype fHbp ID 77) CSSGGGGVAADIGARLADALTAPLDHKDKSLQSLTLDQSVRKNEKLKLAAQGAEKTYGNGDSLNTGKLKNDKVSRFDFIRQIEVDGQLITLESGEFQIYKQDHSAVVALQIEKINNPDKIDSLINQRSFLVSGLGGEHTAFNQLPDGKAEYHGKAFSSDDAGGKLTYTIDFAAKQGHGKIEHLKTPEQNVELAAAELKADEKSHAVILGDTRYGSEEKGTYHLALFGDRAQEIAGSATVKIGEKVHEIGIAGKQ"
result = "0 fold"

[[record]]
binder = "fHbp ID 22, wild-type (variant group 2, modular group III) (other, Recombinant; also called ID 22 (III); WT ID 22) CSSGGGGVAADIGAGLADALTAPLDHKDKSLQSLTLDQSVRKNEKLKLAAQGAEKTYGNGDSLNTGKLKNDKVSRFDFIRQIEVDGQLITLESGEFQIYKQDHSAVVALQIEKINNPDKIDSLINQRSFLVSGLGGEHTAFNQLPSGKAEYHGKAFSSDDPNGRLHYSIDFTKKQGYGRIEHLKTPEQNVELASAELKADEKSHAVILGDTRYGGEEKGTYHLALFGDRAQEIAGSATVKIREKVHEIGIAGKQ"
result = "0 fold"

